Observed pIC50 values for Integrase (Human immunodeficiency virus 1) are listed in what follows.
pIC50: −log10 of the molar value.

Examples from the recorded data:
- compound: "O=C1Oc2ccccc2C(O)C1Cc1c(O)c2ccccc2oc1=O (stereo not drawn)"
  pIC50: "< 4.00"
- compound: "CN(C)c1ccc(C(=C2C(=O)C(=O)c3ccccc3C2=O)c2c(O)c(O)c3ccccc3c2O)cc1"
  pIC50: "< 4.00"

Given the compound Cc1ccc(S(=O)(=O)NN=C(CCN2CCCC2)CC(c2ccccc2)c2c(O)c3ccccc3oc2=O)cc1 (stereo not drawn) and test system Integrase (Human immunodeficiency virus 1), the measured pIC50 is < 4.00
